Tested on: 786-0 renal
Experiment: NCI tumour cell line growth inhibition, 48 h
So I've got a bunch of compounds here, and I need their TGI values.

{"compound": "C[C@@H](Nc1cc(F)cc(F)c1)c1cc(C(=O)N(C)C)cc2c(=O)cc(N3CCOCC3)oc12", "TGI": "> 100 µM"}
{"compound": "O=S1SC(=S)C2C=CC=NC21 (stereo unspecified)", "TGI": "27.6 µM"}
{"compound": "COc1ccc2c(c1)C(=Nc1ccc(F)c(Cl)c1)c1c-2c(Nc2ccc(F)c(Cl)c2)nc2ccccc12", "TGI": "42.8 µM"}

For each of the compounds below, state TGI.
1. CC(=O)Nc1cc(Cl)cc(Cl)c1O
2. COC(=O)c1c[nH]c2cc(OC(C)C)c(OC(C)C)cc2c1=O
3. COc1ccc(N2C(=O)C(Cl)C2c2cc3cc(Br)ccc3nc2Cl)cc1 (stereo unspecified)
4. C=C1CN=C(Nc2ccc(Cl)cc2)S1
5. C/C(=C\COP(=O)(O)OP(=O)(O)O)CCCCCCOCc1ccccc1
6. CNc1cc([N+](=O)[O-])ccc1C(=O)N1CCC[C@H]1CO

OUTPUT:
> 100 µM
> 100 µM
18.5 µM
> 100 µM
> 100 µM
> 100 µM

Provide the reported TGI of each entry below, same order.
1. NS(=O)(=O)c1ccc(N=Nc2ccc[nH]c2=O)cc1
2. C/C(O)=C(\C=N\C(=S)N=Nc1c(O)[nH]c2ccccc12)C(=O)Nc1ccccc1C

OUTPUT:
1: > 100 µM; 2: > 100 µM
